Tested on: LG0703-F948-PDC complex spheroid viability
Experiment: Anticancer human tumor LG0703-F948-PDC patient-derived lung adenocarcinoma cell line growth inhibition; active = viability on the fitted dose curve at most 10% of control; inactive = the rest
Conditions: second compound 10 µM; first compound 10 µM
Description: Multicellular complex tumor spheroid response to LSD1 Inhibitor Iadademstat in combination with a variety of drugs and investigational agents in selected tumor cell lines The current study was undertaken to assess response to LSD1 inhibitors in combination with standard-of-care drugs and investigational agents in solid tumor complex spheroid models as well as in the K-562 leukemia. […] Compounds. […] If the clinical Cmax for an agent had not been determined, the highest concentration tested was 10 microM. […]
Tick one outcome: active, inactive

Examples with answers:
{"COMPOUND": "CC1COCCN1c1cc(C2(S(C)(=N)=O)CC2)nc(-c2ccnc3[nH]ccc23)n1 (stereo unspecified) + NC1CC1c1ccc(-c2cccc(O)c2)cc1", "QUALITATIVE_LABEL": "inactive"}
{"COMPOUND": "COc1ccc([C@@H](O)c2cc(-c3ncnc4cc(N5CCOCC5)ccc34)c(F)cc2Cl)nn1 + NC1CC1c1ccc(-c2cccc(O)c2)cc1", "QUALITATIVE_LABEL": "active"}

// outcome(item) with item = O=C(c1cc(Cc2n[nH]c(=O)c3ccccc23)ccc1F)N1CCN(C(=O)C2CC2)CC1 + NC1CC1c1ccc(-c2cccc(O)c2)cc1
inactive

Give the logged outcome of this assay for the following compound: CC(C)c1c(-c2ccccc2)nc2c(C#N)c[nH]n2c1=O + NC1CC1c1ccc(-c2cccc(O)c2)cc1
inactive

Answer briefly: the call reported for CC1(C)CCC(CN2CCN(c3ccc(C(=O)NS(=O)(=O)c4ccc(NCC5CCOCC5)c([N+](=O)[O-])c4)c(Oc4cnc5[nH]ccc5c4)c3)CC2)=C(c2ccc(Cl)cc2)C1 + NC1CCC(NC2CC2c2ccccc2)CC1 in this assay.
active

For CC1(C)CCC(CN2CCN(c3ccc(C(=O)NS(=O)(=O)c4ccc(NCC5CCOCC5)c([N+](=O)[O-])c4)c(Oc4cnc5[nH]ccc5c4)c3)CC2)=C(c2ccc(Cl)cc2)C1 + NC1CC1c1ccc(-c2cccc(O)c2)cc1 , what call appears in the results of this test?
active

----------
System: LG0703-F948-PDC complex spheroid viability
Experiment: Anticancer human tumor LG0703-F948-PDC cell line growth inhibition; active = viability on the fitted dose curve at most 10% of control; inactive = the rest;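 also: spheroids exposed to agents for seven days before readout; 100% = DMSO vehicle control wells as normalization base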
Conditions: second compound 10 µM; first compound 3 µM
Reply using exactly one outcome from true (1) = active, false (0) = inactive

Here's what some known entries look like.
{"COMPOUND": "O=C(C=Cc1cccc(S(=O)(=O)Nc2ccccc2)c1)NO + NC1CCC(NC2CC2c2ccccc2)CC1", "QUALITATIVE_LABEL": "true (1)"}
{"COMPOUND": "CCN(c1cc(-c2ccc(CN3CCOCC3)cc2)cc(C(=O)NCc2c(C)cc(C)[nH]c2=O)c1C)C1CCOCC1 + NC1CC1c1ccc(-c2cccc(O)c2)cc1", "QUALITATIVE_LABEL": "false (0)"}
{"COMPOUND": "NS(=O)(=O)OCC1CC(n2ccc3c(NC4CCc5ccccc54)ncnc32)CC1O (configuration not stated) + NC1CC1c1ccc(-c2cccc(O)c2)cc1", "QUALITATIVE_LABEL": "false (0)"}
{"COMPOUND": "O=C(C=Cc1cccc(S(=O)(=O)Nc2ccccc2)c1)NO + NC1CC1c1ccc(-c2cccc(O)c2)cc1", "QUALITATIVE_LABEL": "true (1)"}
{"COMPOUND": "Nc1ccccc1NC(=O)c1ccc(CNC(=O)OCc2cccnc2)cc1 + NC1CC1c1ccc(-c2cccc(O)c2)cc1", "QUALITATIVE_LABEL": "true (1)"}
{"COMPOUND": "NS(=O)(=O)OCC1CC(n2ccc3c(NC4CCc5ccccc54)ncnc32)CC1O (configuration not stated) + NC1CCC(NC2CC2c2ccccc2)CC1", "QUALITATIVE_LABEL": "false (0)"}

For the next question, use this compound.
Which outcome was assigned to COc1cc(C2c3cc4c(cc3C(OC3OC5COC(C)OC5C(O)C3O)C3COC(=O)C23)OCO4)cc(OC)c1O (configuration not stated) + NC1CCC(NC2CC2c2ccccc2)CC1 in this test?
false (0)
